- tested target: Recombinant human c-KIT kinase (Homo sapiens (Human), UniProt P10721)
- Sequence (P10721 26-976): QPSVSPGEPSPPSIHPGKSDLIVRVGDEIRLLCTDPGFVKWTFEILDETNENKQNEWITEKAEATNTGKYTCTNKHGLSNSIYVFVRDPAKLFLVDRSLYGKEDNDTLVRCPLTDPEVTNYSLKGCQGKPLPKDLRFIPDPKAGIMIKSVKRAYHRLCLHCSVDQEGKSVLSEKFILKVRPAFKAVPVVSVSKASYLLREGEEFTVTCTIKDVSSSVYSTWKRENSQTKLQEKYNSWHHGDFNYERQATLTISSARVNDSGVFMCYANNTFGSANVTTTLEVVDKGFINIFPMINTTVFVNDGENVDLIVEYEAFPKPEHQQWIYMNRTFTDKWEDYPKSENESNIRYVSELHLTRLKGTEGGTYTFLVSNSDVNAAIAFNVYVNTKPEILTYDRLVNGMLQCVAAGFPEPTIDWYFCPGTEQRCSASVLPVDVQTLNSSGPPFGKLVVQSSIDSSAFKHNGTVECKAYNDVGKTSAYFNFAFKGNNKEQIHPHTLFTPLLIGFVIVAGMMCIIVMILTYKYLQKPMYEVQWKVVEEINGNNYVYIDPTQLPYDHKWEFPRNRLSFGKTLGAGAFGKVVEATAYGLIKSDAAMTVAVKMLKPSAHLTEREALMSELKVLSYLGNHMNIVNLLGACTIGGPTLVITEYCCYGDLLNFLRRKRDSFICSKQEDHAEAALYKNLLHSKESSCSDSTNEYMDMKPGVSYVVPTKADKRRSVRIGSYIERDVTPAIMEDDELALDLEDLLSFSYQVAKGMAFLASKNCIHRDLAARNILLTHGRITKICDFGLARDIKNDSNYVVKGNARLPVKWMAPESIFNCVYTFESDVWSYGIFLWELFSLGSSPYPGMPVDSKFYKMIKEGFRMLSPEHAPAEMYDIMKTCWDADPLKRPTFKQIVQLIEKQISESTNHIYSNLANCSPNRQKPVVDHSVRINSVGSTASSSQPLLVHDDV
- experiment notes: c-KIT kinase chemiluminescence assay (ADP-Glo)
- settings: ATP 50 μM
The following compounds are shown together with reported IC50 values.

Solved cases below.
[
  {
    "compound": "Cc1ccc(-c2noc([C@H]3C[C@@H]3F)n2)cc1NC(=O)c1cnn2ccc(N3CC(C(=O)NC4CC4)C3)cc12 [Example 241-10]",
    "tested target": "Recombinant human c-KIT kinase (Homo sapiens (Human), UniProt P10721)",
    "IC50": "< 100 nM"
  },
  {
    "compound": "Cc1ccc(-c2noc([C@H]3C[C@@H]3F)n2)cc1NC(=O)c1cnn2cc(C#N)ccc12 [Example 128]",
    "tested target": "Recombinant human c-KIT kinase (Homo sapiens (Human), UniProt P10721)",
    "IC50": "> 1000 nM"
  },
  {
    "compound": "Cc1ccc(-c2ncc(OC(F)(F)F)cn2)cc1NC(=O)c1cnn2ccc(N3CC4(COC4)C3)cc12 [Example 348]",
    "tested target": "Recombinant human c-KIT kinase (Homo sapiens (Human), UniProt P10721)",
    "IC50": "< 100 nM"
  }
]

Q: Entry Cc1ccc(-c2noc(C34CC(F)(C3)C4)n2)cc1NC(=O)c1cnn2ccc(N3CC4(COC4)C3)cc12 [Example 249] has what IC50?
A: < 100 nM

Q: Next compound up: Cc1ccc(-c2noc(C3CN(C(=O)N(C)C)C3)n2)cc1NC(=O)c1cnn2ccc(N3CC4(COC4)C3)cc12 [Example 281-51]
A: > 1000 nM

Q: Next compound up: Cc1ccc(-c2noc([C@H]3C[C@@H]3F)n2)cc1NC(=O)c1cnn2ccc(N3CC4(C3)CC(C)(O)C4)cc12 [Example 181]
A: < 100 nM

Q: Next compound up: Cc1ccc(-c2noc([C@H]3C[C@@H]3F)n2)cc1NC(=O)c1cnn2ccc(N3CC(CO)(CO)C3)cc12 [Example 241-3]
A: < 100 nM

Q: Next compound up: Cc1ccc(-c2noc([C@H]3C[C@@H](OC(F)F)C3(C)C)n2)cc1NC(=O)c1cnn2ccc(N3CC4(COC4)C3)cc12 [Example 250]
A: < 100 nM

Q: Next compound up: Cc1ccc(-c2noc([C@H]3C[C@@H](OC(F)F)C3)n2)cc1NC(=O)c1cnn2cc(-c3cn(C(F)F)nn3)ccc12 [Example 275]
A: < 100 nM

Q: Next compound up: COc1ccc2c(C(=O)Nc3cc(-c4noc([C@H]5C[C@@H]5F)n4)ccc3C)cnn2c1 [Example 58]
A: < 100 nM

Q: Next compound up: CC(=O)N1CC2(CC(c3nc(-c4cnc(C)c(NC(=O)c5cnn6ccc(N7CC8(C7)CC(O)(C(F)F)C8)cc56)c4)no3)C2)C1 [Example 281-73]
A: > 1000 nM

Q: Next compound up: Cc1ccc(-c2noc([C@H]3C[C@@H]3F)n2)cc1NC(=O)c1cnc(-c2ccc3[nH]c(C(F)(F)F)cc3c2)o1 [Example 304]
A: < 100 nM

Data provenance: patent US20250059174A1
